system tested: pooled human IgG (human IgG1,2,3 and 4)
This section presents proteins with their documented Enzyme Activity Endpoint Assay (purified): Fab'2 values.
assay metric: Enzyme Activity Endpoint Assay (purified): Fab'2

protein	reported value
PRT-351 (protein) MSQTEDSESLQRLRDIEDFQAEKKMQNVVYTKWLDGVDVKDHDFRKIVDGNSAYYATPLLNGRGFYDINKDFNRDSDKCAAAVAANMFHYWLDINRDNVDRFLRQNPEKHGIIELPDGQLKLSDFLNTYESDHGYRDKSKLFDFISENFNGPVWTDKLLDNYINGYAYNYKYGRTIEDPTKNTSKINFFKEVFNEKILTNNHSIRNQNEFSVLLIEALYTGKAIGLSYGPAGLRHSLGHIISVWGADLDADGNVVAIYVTDSDDKKLTIGDERVGLKRYKISTDDENRLRLTAYEETHNTGGQIRGLWTLDTGKYAWADYFDKTEQTGTDQAEQ	37 ng/µL
PRT-311 (protein) MQITSVWTKGVTPLTPEQFRENNEDVIHAPYLAHQGWYDITKAFDGKDNLLCGAATAGNMLHWWFDQNKTEIEAYLSKHPEKQKIIFNNQEWFDLKAAIDTKDSQTNSQLFNYFRDKAFPNLSARQLGVMPDLVLDMFINGYYLNVPKTQSTDVNRPYQDKDKRGGIFDAVFTRGDQTTLLTARHDLKNKGLNDISTIIKQELTEGRALALSHTYANVSISHVINLWGADFNAEGNLEAIYVTDSDANASIGMKKYAVGINAHGHVAISAKKIEGENIGAQVLGLFTLSSGKDIWQKLS	261 ng/µL
